tested on: Streptococcus pyogenes; test: Minimum inhibitory concentration against Streptococcus pyogenes C 203 evaluated in vitro; type: functional; conditions: Streptococcus pyogenes; read-out: MIC
Each entry below lists one item and its recorded MIC value.

>  <molecule>
CC(=O)N[C@@H]1[C@H](O[C@@H]2c3ccc(c(Cl)c3)Oc3cc4cc(c3O)Oc3ccc(cc3Cl)C[C@H]3NC(=O)[C@H](N)c5ccc(O)c(c5)Oc5cc(O)cc(c5)[C@H](NC3=O)C(=O)N[C@H]4C(=O)N[C@H]3C(=O)N[C@@H]2C(=O)N[C@H](C(=O)O)c2cc(O)cc(O)c2-c2cc3ccc2O)O[C@@H](CO)[C@@H](O)[C@@H]1O

>  <target.of.assay>
Streptococcus pyogenes

>  <unit>
mg/L

>  <MIC>
0.5

$$$$
>  <molecule>
CCCCC/C=C/CCC(=O)N[C@@H]1[C@H](Oc2c3cc4cc2Oc2ccc(cc2Cl)CC2NC(=O)[C@H](N)c5ccc(O)c(c5)Oc5cc(O)cc(c5)C(NC2=O)C(=O)NC4C(=O)NC2C(=O)/N=C(\Cc4ccc(c(Cl)c4)O3)C(=O)N[C@H](C(=O)O)c3cc(O)cc(O[C@H]4O[C@H](CO)[C@@H](O)[C@@H](O)[C@@H]4O)c3-c3cc2ccc3O)O[C@@H](CO)[C@@H](O)[C@@H]1O (stereo not given in full)

>  <target.of.assay>
Streptococcus pyogenes

>  <unit>
mg/L

>  <MIC>
0.063

$$$$
>  <molecule>
CCCCC/C=C/CCC(=O)N[C@@H]1[C@H](Oc2c3cc4cc2Oc2ccc(cc2Cl)[C@@H](O[C@@H]2O[C@@H](CO)[C@@H](O)[C@H](O)[C@@H]2NC(C)=O)[C@@H]2NC(=O)[C@H](NC(=O)[C@@H]4NC(=O)[C@H]4NC(=O)[C@@H](Cc5ccc(c(Cl)c5)O3)NC(=O)[C@H](N)c3ccc(O)c(c3)Oc3cc(O)cc4c3)c3ccc(O)c(c3)-c3c(O[C@H]4O[C@H](CO)[C@@H](O)[C@@H](O)[C@@H]4O)cc(O)cc3[C@@H](C(=O)O)NC2=O)O[C@@H](CO)[C@@H](O)[C@@H]1O

>  <target.of.assay>
Streptococcus pyogenes

>  <unit>
mg/L

>  <MIC>
0.063

$$$$
>  <molecule>
N[C@H]1C(=O)NC2Cc3ccc(c(Cl)c3)Oc3cc4cc(c3O)Oc3ccc(cc3Cl)/C=C3\NC(=O)C(NC(=O)C4NC(=O)C(NC2=O)c2cc(O)cc(c2)Oc2cc1ccc2O)c1ccc(O)c(c1)-c1c(O)cc(O)cc1[C@@H](C(=O)O)NC3=O (stereo in doubt; 5)

>  <target.of.assay>
Streptococcus pyogenes

>  <unit>
mg/L

>  <MIC>
8

$$$$
>  <molecule>
N[C@H]1C(=O)NC2Cc3ccc(c(Cl)c3)Oc3cc4cc(c3O)Oc3ccc(cc3Cl)C/C3=N\C(=O)C(NC(=O)C4NC(=O)C(NC2=O)c2cc(O)cc(c2)Oc2cc1ccc2O)c1ccc(O)c(c1)-c1c(O)cc(O)cc1[C@@H](C(=O)O)NC3=O (stereo not given in full)

>  <target.of.assay>
Streptococcus pyogenes

>  <unit>
mg/L

>  <MIC>
1

$$$$

src = ChEMBL document CHEMBL1124656
